- System: MS2 coat protein
- assay.info: apparent KD of MS2 coat protein; designed switch direction (-1 OFF switch, 1 ON switch): -1; higher = weaker reporter binding
- recorded.conditions: input ligand: FMN 200 uM
Attribute: apparent KD of MS2 coat protein
assay.readout: apparent KD of MS2 coat protein (µM)

macromolecule_sequence="UGCAGACGAGGAUAUGAUAAUUAAUACAUGAGGAUCACCCAUGUAAUACUGAUCCAUGGAUCAGAAGGCGUCUGCU [E5/4-A3] (Eterna round: R97, puzzle: Exclusion 5)" value_observed=0.0202
macromolecule_sequence="CUAUGUGCGAGAGGAUAUCGUGUACAAAGUACACGAGAAGGCUUCACAUGAGGAUCACCCAUGUACCGAGGUGAAACACCUUGA [Omei Exc(NG)1 Bv6] (Eterna round: R96, puzzle: Exclusion NG 1)" value_observed=0.744
macromolecule_sequence="GUCAGCUCGUGAGGAUAUACAUGAGGAUCACCCAUGUGAUCAAUAGCAGCUUCGGCUGCAUUAAUGUAGAAGGUACGAGCUGAC [ENG2/5-C1] (Eterna round: R96, puzzle: Exclusion NG 2)" value_observed=0.0652
macromolecule_sequence="UGUCAGAUGGUAGGAUAUCCAUAUUGAGUGACCCUUUCAUAACAUGAGGAUCACCCAUGUCGGUGGGAGAAGGGCCGUAUGGUG [salish99_ExNG02_R04_028] (Eterna round: R96, puzzle: Exclusion NG 2)" value_observed=0.0537
macromolecule_sequence="AGCGAAUAAGUAGGAUAUGAGAAUAGAUAGAGCUCAGAAGGACUACAUGAGGAUCACCCAUGUAAAGUCUUGAGGCUGCGUGGU [Prohibition 14 - Jieux - Exclusion NG 1] (Eterna round: R96, puzzle: Exclusion NG 1)" value_observed=0.0108
macromolecule_sequence="GUCAGACGAGGAUAUGAUGUCAAAGACAUGAGGAUCACCCAUGUGAUCAAUUAAUUAAGAUCAGAAGGCGUCUGAC [E5/2-A3] (Eterna round: R97, puzzle: Exclusion 5)" value_observed=0.172
macromolecule_sequence="UGCCGUUUAGGAUAUACAUGAGGAUCACCCAUGUGACACACAUAUUUUACAAAACCAUGUAGAAGGAAACGGCA [E3-1.0] (Eterna round: R96, puzzle: Exclusion 3)" value_observed=0.542
macromolecule_sequence="UCCUGACAUGAGGAUCACCCAUGUGAGGAUAUGUGGAUCGAGACAACUCUCGGUCCGUGCAGAAGGCACAGGGC [EX1 A.20] (Eterna round: R97, puzzle: Exclusion 1)" value_observed=0.0281
macromolecule_sequence="AAACAAAAGGCAGGAUAUCCUCGUCAACACCACAAGUCCACUCGGACAUGAGGAUCACCCAUGUAGGAGAAGGGCCAGAAAUAC [Bevearla] (Eterna round: R96, puzzle: Exclusion NG 2)" value_observed=0.0888
macromolecule_sequence="CGUGUACUGCAGGAUAUCCUAGAUGCGGACAUCGGAGAAGGGCAGACAUGAGGAUCACCCAUGUGUGGCGGAGA [EX6 B.16] (Eterna round: R97, puzzle: Exclusion 6)" value_observed=0.221

====

- Test system: MS2 coat protein
- assay.info: apparent KD of MS2 coat protein; designed switch direction (-1 OFF switch, 1 ON switch): 1; higher = weaker reporter binding
- recorded.conditions: Eterna round: R98; input ligand: FMN 200 uM
Rule: Y for apparent KD of MS2 coat protein not less than 30 nM, N for anything less.

macromolecule_sequence="UUUUUAUUUAUAGGAUAUGGAGACAUGAGGAUCACCCAUGUAUGAUAAGAUAAAUUAUGAUGUGGCCAGAAGGAUAUUAUUUUU [LRO018_SS NG 2]" target="MS2 coat protein" class_label=Y
macromolecule_sequence="UGAUCGCUUGGAGGAUAUCCAACUAUCCUAGUUGGAGAAGGCCAAGCUACAGAGCUAAGCUUGGAAGUCACUUCCGAUCAACAC [pwkr ssNG1 F9.4.2]" target="MS2 coat protein" class_label=Y
macromolecule_sequence="CCUUGAUAAUAUCUUCACAUGAGGAUCACCCAUGUCGCUCGACAGGAUAUAUUUUAUUUGUUUAAGUAGAAGGGUCGCAGAUUC [LRO020_SS NG 3]" target="MS2 coat protein" class_label=Y
macromolecule_sequence="GCAGAAGGUGCGGAGGAUCACCCUGUAAGGAUAUGCAUUAGCAAGGAUAUACAGAGGAUCACCCUGUAGAAGGUGCACUAUUCU [pwkr2 ssNG3 DX.4]" target="MS2 coat protein" class_label=Y
macromolecule_sequence="AAAACAUGAGGAUCACCCAUGUAAAGAUCGGUUAAUAGAAGUGAGGAUAUACUAAAUUUUAGGUAGUAGAAGGCACUGGGUACA [JR_SSNG3_Sub034]" target="MS2 coat protein" class_label=N
macromolecule_sequence="GGAGACCUCACAGGAUAUGCUGGACUUUGUCCAGCAGAAGGGUGAACAUGAGGAUCACCCAUGUAAAUGGUCUCCAAAUUUAAU [Denovo 55]" target="MS2 coat protein" class_label=Y
macromolecule_sequence="UAUUAAAGGUGAGGAUAUGCACAGGAUCACCGUGUAGAAGGCAUCAGGUAGAAGGUGCAGAGGAUCACCCUGUAAGGAUAUAUC [pwkr2 ssNG1 DX.10]" target="MS2 coat protein" class_label=Y
macromolecule_sequence="UUAUAAAAUAUAGGAUAUGGAAACAUGAGGAUCACCCAUGUAUGAUAAGAUAAAUUAUGAUAUAGCCAGAAGGAUACAAUAUAU [LRO011_SS NG 2]" target="MS2 coat protein" class_label=N
macromolecule_sequence="AAAUAAAAUAUAGGAUAUGGAAACAUGAGGAUCACCCAUGUAAAAUAAGAUAAAUAAUAAUAUAGCCAGAAGGAUAAAAUAUAA [LRO004_SS NG 2]" target="MS2 coat protein" class_label=Y
macromolecule_sequence="UCGGUUUUCGCAGGAUAUGGAGGAUAUUCCCACAUGAGCAUCAGCCAUGUCUGCAUGGAAGAAGGCCAGAAGGGCGAGAACCGA [United States 1 - Jieux - Same State NG 2]" target="MS2 coat protein" class_label=N
macromolecule_sequence="GUGCGAGCCACAGGAUAUCUACAGAUUUUUUGUAGAGAAGGGUGACCUCGUGCACCACAUGAGGAUCACCCAUGUAACUAGGCG [Bianeren]" target="MS2 coat protein" class_label=N
